Below is a list of entries, each paired with its recorded viability, T/C value.
# Tested on: 876862-298-R-J1-PDC complex spheroids, viability % test/control;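 note: spheroids exposed to drugs for 7 days before readout; 100% = DMSO vehicle control wells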
# Test protocol: Anticancer human tumor 876862-298-R-J1-PDC patient-derived endometrial carcinoma cell line growth inhibition [CLK]
# Applied conditions: second compound 0.0316 µM; first compound 1 µM; stronger effect = lower value

Here is how some compounds turned out for viability, T/C.
- CCCS(=O)(=O)Nc1ccc(F)c(C(=O)c2c[nH]c3ncc(-c4ccc(Cl)cc4)cc23)c1F + CNC(=O)c1ccc(Nc2nc(OC3CCCC3)c3c(-c4ccc5nc(C)oc5c4)c[nH]c3n2)c(OC)c1: 90.9%
- C=CC(=O)N1CCN(c2nc(=O)n(-c3c(C)ccnc3C(C)C)c3nc(-c4c(O)cccc4F)c(F)cc23)C(C)C1 (stereo not given) + CNC(=O)c1ccc(Nc2nc(OC3CCCC3)c3c(-c4ccc5nc(C)oc5c4)c[nH]c3n2)c(OC)c1: 90.2%
- CC1COCCN1c1cc(C2(S(C)(=N)=O)CC2)nc(-c2ccnc3[nH]ccc23)n1 (stereo not given) + CNC(=O)c1ccc(Nc2nc(OC3CCCC3)c3c(-c4ccc5nc(C)oc5c4)c[nH]c3n2)c(OC)c1: 69.8%
- COC1C=CCC(C)C(C)S(=O)(=O)NC(=O)c2ccc3c(c2)N(CC2CCC21)CC1(CCCc2cc(Cl)ccc21)CO3 (stereo not given) + CNC(=O)c1ccc(Nc2nc(OC3CCCC3)c3c(-c4ccc5nc(C)oc5c4)c[nH]c3n2)c(OC)c1: 104%

In the following, a different compound is considered.
Prompt: Param readout= viability, T/C; system= 876862-298-R-J1-PDC complex spheroids, viability % test/control; entry= C#Cc1c(F)ccc2cc(O)cc(-c3ncc4c(N5CC6CCC(C5)N6)nc(OCC56CCCN5CC(F)C6)nc4c3F)c12 (stereo not given) + CNC(=O)c1ccc(Nc2nc(OC3CCCC3)c3c(-c4ccc5nc(C)oc5c4)c[nH]c3n2)c(OC)c1 ; returns value.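 Note: spheroids exposed to drugs for 7 days before readout; 100% = DMSO vehicle control wells.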
Completion: 75.3%
